Attribute: IC50
# experimental.target: D816V Kit (Homo sapiens, UniProt P10721, D816V)
# Sequence (P10721 26-976 D816V): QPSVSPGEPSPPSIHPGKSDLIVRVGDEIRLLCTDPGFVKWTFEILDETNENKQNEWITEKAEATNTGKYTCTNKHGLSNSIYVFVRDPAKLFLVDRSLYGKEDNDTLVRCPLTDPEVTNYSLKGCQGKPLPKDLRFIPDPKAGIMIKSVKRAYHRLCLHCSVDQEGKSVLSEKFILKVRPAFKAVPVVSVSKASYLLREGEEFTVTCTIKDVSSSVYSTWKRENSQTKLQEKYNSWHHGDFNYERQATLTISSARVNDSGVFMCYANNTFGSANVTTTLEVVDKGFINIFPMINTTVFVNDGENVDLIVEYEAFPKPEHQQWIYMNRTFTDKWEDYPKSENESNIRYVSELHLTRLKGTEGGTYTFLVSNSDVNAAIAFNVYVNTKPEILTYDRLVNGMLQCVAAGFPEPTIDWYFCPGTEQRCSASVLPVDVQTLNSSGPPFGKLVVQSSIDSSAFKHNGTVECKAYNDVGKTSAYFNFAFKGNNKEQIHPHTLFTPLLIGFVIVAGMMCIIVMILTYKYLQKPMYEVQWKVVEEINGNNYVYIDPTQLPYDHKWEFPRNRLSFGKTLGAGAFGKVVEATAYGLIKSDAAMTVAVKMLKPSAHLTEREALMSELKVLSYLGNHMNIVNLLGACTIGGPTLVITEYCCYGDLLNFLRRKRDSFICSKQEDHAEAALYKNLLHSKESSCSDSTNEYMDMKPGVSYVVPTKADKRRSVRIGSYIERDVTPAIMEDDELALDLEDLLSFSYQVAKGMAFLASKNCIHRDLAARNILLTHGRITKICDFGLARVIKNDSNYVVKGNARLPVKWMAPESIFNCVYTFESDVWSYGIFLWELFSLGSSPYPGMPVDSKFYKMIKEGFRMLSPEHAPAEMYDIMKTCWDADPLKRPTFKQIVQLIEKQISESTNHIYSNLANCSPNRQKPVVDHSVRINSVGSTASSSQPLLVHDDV
# assay.remarks: Kit D816V assay at Km (Caliper electrophoretic mobility shift)
# run.conditions: 15 uM ATP, 25 C, 90 minutes
test.readout: IC50

c1ccc(Cc2cnc(N3CCN(c4ncnc(Nc5cnn(C6COC6)c5)n4)CC3)nc2)cc1    < 1 nM
CN1CCN(c2ccc(Nc3ncnc(N4CCN(c5ncc(Cc6ccccc6)cn5)CC4)n3)cc2)CC1    < 1 nM
Fc1ccc(OCc2cnc(N3CCN(c4ncnc(Nc5cnn(C[C@@H]6CNCCO6)c5)n4)CC3)nc2)cc1    1.01 to 10 nM
OC1(c2ccc(Nc3ncnc(N4CCN(c5ncc(Cc6ccccc6)cn5)CC4)n3)cc2)COC1    1.01 to 10 nM
O[C@H]1CCN(c2ccc(Nc3ncnc(N4CCN(c5ncc(Cc6ccccc6)cn5)CC4)n3)cc2)C1    1.01 to 10 nM
Oc1ccccc1Cc1cnc(N2CCN(c3ncnc(Nc4ccc5c(c4)CNCC5)n3)CC2)nc1    < 1 nM
c1ccc(Cc2cnc(N3CCN(c4ncnc(Nc5cnn(C[C@@H]6COCCN6)c5)n4)CC3)nc2)cc1    1.01 to 10 nM
Fc1cccc(Cc2cnc(N3CCN(c4ncnc(Nc5ccc6c(c5)CNCC6)n4)CC3)nc2)c1F    1.01 to 10 nM
c1ccc(Cc2cnc(N3CCN(c4ncnc(Nc5cnn(CC6CNC6)c5)n4)CC3)nc2)cc1    < 1 nM
CN1CCN(c2cccc(Nc3ncnc(N4CCN(c5ncc(Cc6ccccc6)cn5)CC4)n3)c2)CC1    < 1 nM
c1ccc(Cc2cnc(N3CCN(c4ncnc(Nc5ccc6c(c5)CNCC6)n4)CC3)nc2)nc1    1.01 to 10 nM
CC(C)(O)[C@H](O)c1ccc(Nc2ncnc(N3CCN(c4ncc(Cc5ccccc5)cn4)CC3)n2)cc1    < 1 nM
CCNc1cccc(Nc2ncnc(N3CCN(c4ncc(Cc5ccccc5)cn4)CC3)n2)c1    < 1 nM
C[C@](N)(c1ccc(F)cc1)c1cnc(N2CCN(c3ncnc(Nc4ccccc4)n3)CC2)nc1    < 1 nM
CNC(C)c1cccc(Nc2ncnc(N3CCN(c4ncc(Cc5ccccc5)cn4)CC3)n2)c1 (stereo not drawn)    < 1 nM

---

# experimental.target: Kit D816V (HMC1.2 cells, Kit V560G and D816V) (Homo sapiens, UniProt P10721, D816V/V560G)
# Construct: endogenous in cells
# Sequence (P10721 26-976 V560G/D816V): as the sequence (P10721 26-976 D816V) above, with V535G counted along it
# assay.remarks: HMC1.2 autophosphorylation assay (AlphaLISA, phospho-Y719 c-Kit)
# run.conditions: Kit autophosphorylation at tyrosine 719, 90 minutes, read-out: Cellular Activity
test.readout: IC50

C[C@](N)(c1ccc(F)cc1)c1cnc(N2CCN(c3ncnc(Nc4ccc(N5CCC[C@H](O)C5)cc4)n3)CC2)nc1    10 to 100 nM
NS(=O)(=O)c1cccc(Nc2ncnc(N3CCN(c4ncc(Cc5ccccc5)cn4)CC3)n2)c1    1000 to 10000 nM
CN1CCC[C@H](Oc2ccc(Nc3ncnc(N4CCN(c5ncc(Cc6ccccc6)cn5)CC4)n3)cc2)C1    < 10 nM
O[C@@H]1CCN(c2ccc(Nc3ncnc(N4CCN(c5ncc(Cc6ccccc6)cn5)CC4)n3)cc2)C[C@@H]1O    10 to 100 nM
CC(C)(c1ccccc1)c1cnc(N2CCN(c3ncnc(Nc4cnn(C[C@@H]5CNCCO5)c4)n3)CC2)nc1    10 to 100 nM
Oc1nc(N2CCN(c3ncnc(Nc4cnn(CC5CCNCC5)c4)n3)CC2)ncc1Cc1ccccc1    1000 to 10000 nM
C[C@@]1(O)CCCN(c2ccc(Nc3ncnc(N4CCN(c5ncc(Cc6ccccc6)cn5)CC4)n3)cc2)C1    10 to 100 nM

---

# experimental.target: Kit D816V (HMC1.2 cells, Kit V560G and D816V) (Homo sapiens, UniProt P10721, D816V/V560G)
# Construct: endogenous in cells
# assay.remarks: HMC1.2 autophosphorylation assay (AlphaLISA, phospho-Y719 c-Kit)
# run.conditions: Kit autophosphorylation at tyrosine 719, 90 minutes, read-out: Cellular Activity
pIC50: −log10 of the molar value.
test.readout: pIC50

OC[C@H](O)c1ccc(Nc2ncnc(N3CCN(c4ncc(Cc5ccccc5)cn4)CC3)n2)cc1 (single isomer, unassigned)    7.00 to 8.00
O[C@@H]1CCCN(c2ccc(Nc3ncnc(N4CCN(c5ncc(Cc6ccc(F)cc6)cn5)CC4)n3)cc2)C1    7.00 to 8.00
Cc1c(Nc2ncnc(N3CCN(c4ncc(Cc5ccccc5)cn4)CC3)n2)cnn1C[C@@H]1CNCCO1    7.00 to 8.00
OC[C@@H](O)c1ccc(Nc2ncnc(N3CCN(c4ncc(Cc5ccc(F)cc5)cn4)CC3)n2)cc1    7.00 to 8.00
c1ccc(Cc2cnc(N3CCN(c4ncnc(Nc5cnn([C@H]6CCNC6)c5)n4)CC3)nc2)cc1    7.00 to 8.00
CN1CCNC[C@H]1Cn1cc(Nc2ncnc(N3CCN(c4ncc(Cc5ccccc5)cn4)CC3)n2)cn1    7.00 to 8.00
OCc1nc(N2CCN(c3ncnc(Nc4ccc5c(c4)CNCC5)n3)CC2)ncc1Cc1ccccc1    7.00 to 8.00
C[C@](N)(c1ccc(F)cc1)c1cnc(N2CCN(c3ncnc(Nc4ccc([C@@H](O)CO)cc4)n3)CC2)nc1    > 8.00
Cc1cc(N2CCN(C)CC2)ccc1Nc1ncnc(N2CCN(c3ncc(Cc4ccccc4)cn3)CC2)n1    6.00 to 7.00
NC(=O)c1ccc(Nc2ncnc(N3CCN(c4ncc(Cc5ccccc5)cn4)CC3)n2)cc1    6.00 to 7.00
CC1(O)CCCN(c2ccc(Nc3ncnc(N4CCN(c5ncc(Cc6ccccc6)cn5)CC4)n3)cc2)C1 (centres unmarked)    7.00 to 8.00
CC(C)(O)Cn1cc(Nc2ncnc(N3CCN(c4ncc([C@@](C)(O)c5ccc(F)cc5)cn4)CC3)n2)cn1    > 8.00
c1ccc(Cc2cnc(N3CCN(c4ncnc(Nc5ccc(N6CCOCC6)cc5)n4)CC3)nc2)cc1    6.00 to 7.00
CS(=O)(=O)c1ccc(Nc2ncnc(N3CCN(c4ncc(Cc5ccccc5)c(O)n4)CC3)n2)cc1    6.00 to 7.00

---

Examples of compounds with documented IC50 follow.
# experimental.target: Kit D816V (HMC1.2 cells, Kit V560G and D816V) (Homo sapiens, UniProt P10721, D816V/V560G)
# Construct: endogenous in cells; host or cells: HMC1.2 cells
# assay.remarks: HMC1.2 autophosphorylation assay (AlphaLISA, phospho-Y719 c-Kit)
# Format: cell-based
# run.conditions: Kit autophosphorylation at tyrosine 719, 90 minutes, read-out: Cellular Activity
test.readout: IC50

Cc1c(Nc2ncnc(N3CCN(c4ncc(Cc5ccccc5)cn4)[C@H](C)C3)n2)cnn1C[C@@H]1CNCCO1    10 to 100 nM
c1ccc(Cc2cnc(N3CCN(c4ncnc(Nc5cnc6c(c5)CNCC6)n4)CC3)nc2)cc1    10 to 100 nM
c1ccc(Cc2cnc(N3CCN(c4ncnc(Nc5ccc6c(c5)CN(C5CC5)CC6)n4)CC3)nc2)cc1    10 to 100 nM
NC(=O)c1cccc(Nc2ncnc(N3CCN(c4ncc(Cc5ccccc5)cn4)CC3)n2)c1    100 to 1000 nM
c1ccc(Cc2cnc(N3CCN(c4ncnc(Nc5cnn(CC6CCNCC6)c5)n4)CC3)nc2)cc1    10 to 100 nM
CC(C)(O)Cn1cc(Nc2ncnc(N3CCN(c4ncc(Sc5ccccc5F)cn4)CC3)n2)cn1    10 to 100 nM
CN1CCC[C@H]1COc1ccc(Nc2ncnc(N3CCN(c4ncc(Cc5ccccc5)c(N)n4)CC3)n2)cc1    < 10 nM

---

Below is a list of entries, each paired with its recorded IC50 value.
# experimental.target: Kit D816V (HMC1.2 cells, Kit V560G and D816V) (Homo sapiens, UniProt P10721, D816V/V560G)
# Construct: endogenous in cells
# assay.remarks: HMC1.2 autophosphorylation assay (AlphaLISA, phospho-Y719 c-Kit)
# run.conditions: Kit autophosphorylation at tyrosine 719, 90 minutes, read-out: Cellular Activity
test.readout: IC50

Fc1cccc(Cc2cnc(N3CCN(c4ncnc(Nc5cnn(C[C@@H]6CNCCO6)c5)n4)CC3)nc2)c1 [Compound 197]    0.1 to 1 µM
Nc1nc(N2CCN(c3ncnc(Nc4cnn(CC5CNCCO5)c4)n3)CC2)ncc1Cl (stereo not drawn) [Compound 34]    1 to 10 µM
c1ccc(Cc2cnc(N3CCN(c4ncnc(Nc5ccc(O[C@H]6CCCNC6)cc5)n4)CC3)nc2)cc1 [Compound 162]    < 0.01 µM
Fc1ccccc1Oc1cnc(N2CCN(c3ncnc(Nc4cnn(C[C@@H]5CNCCO5)c4)n3)CC2)nc1 [Compound 203]    0.01 to 0.1 µM
c1ccc(Cc2cnc(N3CCN(c4ncnc(Nc5ccc(OC6CNC6)cc5)n4)CC3)nc2)cc1 [Compound 77]    0.01 to 0.1 µM
CC(C)(O)Cn1cc(Nc2ncnc(N3CCN(c4ncc(Cc5ccccc5)cn4)CC3)n2)cn1 [Compound 62]    0.01 to 0.1 µM
c1ccc(OCc2cnc(N3CCN(c4ncnc(Nc5cnn(C[C@@H]6CNCCO6)c5)n4)CC3)nc2)cc1 [Compound 190]    0.01 to 0.1 µM
Fc1ccc(Nc2cnc(N3CCN(c4ncnc(Nc5cnn(C[C@@H]6CNCCO6)c5)n4)CC3)nc2)cc1 [Compound 200]    0.1 to 1 µM
CCNc1cccc(Nc2ncnc(N3CCN(c4ncc(Cc5ccccc5)cn4)CC3)n2)c1 [Compound 25]    0.01 to 0.1 µM
C[C@@H](O)CNc1ccc(Nc2ncnc(N3CCN(c4ncc(Cc5ccccc5)cn4)CC3)n2)cc1 [Compound 82]    0.01 to 0.1 µM
O[C@@H](c1ccccc1)c1cnc(N2CCN(c3ncnc(Nc4cnn(CC5CNCCO5)c4)n3)CC2)nc1 (stereo partly drawn) [Compound 189]    0.01 to 0.1 µM
Fc1ccc(Cc2cnc(N3CCN(c4ncnc(Nc5ccc6c(c5)CNCC6)n4)CC3)nc2)c(F)c1 [Compound 138]    0.01 to 0.1 µM
Clc1ncc(N2CCN(c3ncnc(Nc4cnn(CC5CNCCO5)c4)n3)CC2)nn1 (stereo not drawn) [Compound 18]    > 10 µM
C[C@@H](O)Cn1cc(Nc2ncnc(N3CCN(c4ncc(Cc5ccccc5)cn4)CC3)n2)cn1 [Compound 32]    0.01 to 0.1 µM
Cc1nn(CC(C)(C)O)cc1Nc1ncnc(N2CCN(c3ncc(Sc4ccccc4F)cn3)CC2)n1 [Compound 209]    0.01 to 0.1 µM

src = patent US9334263B2
